Molecular target: human JAK1 (a.a. 837-1142) (Homo sapiens, UniProt P23458)
Construct: human JAK1 (a.a. 837-1142); His tag (N); made in house; host or cells: insect cells (baculovirus)
Sequence (P23458 849-1154): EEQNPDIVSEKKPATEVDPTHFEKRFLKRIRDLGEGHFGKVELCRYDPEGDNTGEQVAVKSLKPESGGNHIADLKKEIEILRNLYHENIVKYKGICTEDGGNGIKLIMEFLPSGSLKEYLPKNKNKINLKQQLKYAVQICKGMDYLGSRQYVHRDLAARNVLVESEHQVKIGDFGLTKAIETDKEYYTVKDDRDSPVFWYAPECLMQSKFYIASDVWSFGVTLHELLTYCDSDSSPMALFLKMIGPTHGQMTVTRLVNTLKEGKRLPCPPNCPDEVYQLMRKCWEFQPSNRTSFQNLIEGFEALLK
Test: In vitro JAK kinase assay (HTRF, phosphorylation of a biotinylated peptide), JAK1
Type: biochemical
Details: Table D1; read-out: JAK1 IC50
Structures can show the parent of a compound that is named as a salt.
Quick list: log10(IC50) per entry.
MEASURED PARAMETER: log10(IC50) (log10 of the value in nM)

>  <COMPOUND>
Clc1cnc2nc1Nc1cccc(c1)CCCNc1cccc(c1)N2 [Example D77, bis(trifluoroacetate)]

>  <MEASURED PARAMETER>
log10(IC50)

>  <OBSERVED>
0.95

$$$$
>  <COMPOUND>
N#Cc1ccccc1S(=O)(=O)N1CCN(C(=O)COc2ccc3cc2CCc2cncc(c2)Nc2ncc(Cl)c(n2)N3)CC1 [Example D254, bis(trifluoroacetate)]

>  <MEASURED PARAMETER>
log10(IC50)

>  <OBSERVED>
0.91

$$$$
>  <COMPOUND>
CS(=O)(=O)N1CC[C@@H](CC(=O)Nc2ccc3cc2CCc2cncc(c2)Nc2ncc(Cl)c(n2)N3)C1 [Example D127, bis(trifluoroacetate)]

>  <MEASURED PARAMETER>
log10(IC50)

>  <OBSERVED>
1.08

$$$$
>  <COMPOUND>
Clc1cnc2nc1Nc1cccc(c1)SCCc1cccc(c1)N2 [Example D18, trifluoroacetate]

>  <MEASURED PARAMETER>
log10(IC50)

>  <OBSERVED>
0.73

$$$$
>  <COMPOUND>
Clc1cnc2nc1Nc1cccc(c1)OCCc1cc(cc(-c3ccc(N4CCNCC4)nc3)c1)N2 [Example D33, tris(trifluoroacetate)]

>  <MEASURED PARAMETER>
log10(IC50)

>  <OBSERVED>
0.26

$$$$
>  <COMPOUND>
Clc1cnc2nc1Nc1cccc(c1)OCCc1cc(cc(-c3cnc(N4CCNCC4)nc3)c1)N2 [Example D31, tris(trifluoroacetate)]

>  <MEASURED PARAMETER>
log10(IC50)

>  <OBSERVED>
-0.05

$$$$
